# assay target: MNK2 (h) protein kinase (Homo sapiens)
# Construct: purchased Eurofins Pharma Discovery Services UK Limited (KinaseProfiler service)
# Sequence (Q9HBH9 whole entry): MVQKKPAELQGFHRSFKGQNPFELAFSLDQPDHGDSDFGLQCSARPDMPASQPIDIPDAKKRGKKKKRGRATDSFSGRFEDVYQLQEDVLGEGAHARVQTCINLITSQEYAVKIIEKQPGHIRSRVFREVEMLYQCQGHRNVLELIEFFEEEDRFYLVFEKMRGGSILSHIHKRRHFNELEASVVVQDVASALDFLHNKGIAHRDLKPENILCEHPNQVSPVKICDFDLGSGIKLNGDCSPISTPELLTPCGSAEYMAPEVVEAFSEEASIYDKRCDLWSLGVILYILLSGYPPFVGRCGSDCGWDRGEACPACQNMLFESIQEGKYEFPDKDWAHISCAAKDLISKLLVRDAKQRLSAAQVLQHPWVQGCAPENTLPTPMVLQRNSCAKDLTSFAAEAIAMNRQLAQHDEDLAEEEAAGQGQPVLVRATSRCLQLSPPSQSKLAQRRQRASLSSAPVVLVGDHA
# method description: Inhibitory activity against MNK2 protein kinase (KinaseProfiler, 33P-ATP filter-binding)
# Format: biochemical
# experimental setup: myelin basic protein substrate, 40 min at room temperature
# Description: Purpose of experiment: to test the inhibitory activity of the compound against MNK2 protein kinase Experimental materials: assay buffer: 8 mM 3-(N-morpholino)propanesulfonic acid, 0.2 mM disodium ethylenediaminetetraacetate, 0.01% polyoxyethylene lauryl ether, 5% glycerol, 0.1% β-mercaptoethanol and 1 mg of bovine serum albumin […] The protein kinase inhibitory activity of the compound was expressed as a percentage of the residual protein kinase activity relative to the blank substrate (DMSO alone). […]
attribute measured: IC50 (nM)

> print(dat)
                              record.smiles  attribute.measured  scale.unit  recorded.value
1  Cc1cc(Nc2ncnn3cc(OCCN4CCC(F)(F)C4)c(C)c23)c(=O)n2c1C(=O)NC21CCCC1                IC50          nM              17

These data points were gathered from patent US20240254144A1.
